System: Klebsiella pneumoniae
Test: Antibacterial activity against Klebsiella pneumoniae ATCC 13833 assessed as bacterial growth inhibition by agar diffusion assay
Type: functional
metric name: MIC (µg/mL)

>>> print(df.to_string())
                                  structure  value_units  value_prefix  readout_number
0  CC(C)(C)n1cc(C(=O)O)c(=O)c2cc(F)c(-c3ccc(F)cc3F)cc21        µg/mL             =               4
1  CC(C)(C)n1cc(C(=O)O)c(=O)c2cc(F)c(Sc3ccccc3)cc21        µg/mL             =               8
2     CCCCCCc1ccc(O)cc1OCCCCCCCCCCC(=O)NCCO        µg/mL             >             512
3  O=C(NCc1ccc2c(c1)OCO2)c1cnn(-c2ccccc2)c1-n1cccc1        µg/mL             >             512
4        CCOC(=O)c1cn(CC)c2cc(N)c(F)cc2c1=O        µg/mL             =             128
5   CCCCCc1cc(O)cc(OCCCCCCCCCCCC(=O)NCCO)c1        µg/mL             >             512
6             CCOC(=O)c1c(O)nc2c(C)cccc2c1O        µg/mL             >             512
7      O=C(O)c1cn(C2CC2)c2cc(Br)c(F)cc2c1=O        µg/mL             ≤            0.12
8          CCCCCCc1ccc(O)cc1OCCCCCC(=O)NCCO        µg/mL             >             512
9  COc1ccc(CNC(=O)c2c(O)c3cc(-c4cccnc4)ccc3n(CCCCO)c2=O)cc1        µg/mL             =              32

---

Tested on: Pseudomonas aeruginosa
Test: Antibacterial activity against Pseudomonas aeruginosa ATCC 27853 assessed as bacterial growth inhibition by agar diffusion assay
Assay type: functional
metric name: MIC

>>> print(df.to_string())
                                  structure       result
0  CC(C)(C)n1cc(C(=O)O)c(=O)c2cc(F)c(-c3ccc(F)cc3F)cc21     64 µg/mL
1          CCCCCCc1ccc(O)cc1OCCCCCC(=O)NCCO  > 512 µg/mL
2             CCOC(=O)c1c(O)nc2c(C)cccc2c1O  > 512 µg/mL
3  COc1ccc(CNC(=O)c2c(O)c3cc(-c4cccnc4)ccc3n(CCCCO)c2=O)cc1    256 µg/mL
4  O=C(NCc1ccc2c(c1)OCO2)c1cnn(-c2ccccc2)c1-n1cccc1  > 512 µg/mL
5        CCOC(=O)c1cn(CC)c2cc(N)c(F)cc2c1=O  > 256 µg/mL
6  CC(C)c1ccc2c(c1)c(O)c(C(C)C)c(=O)n2CC(C)(C)C  > 512 µg/mL
7        CCCCCCc1ccc(OCCCCCCCC(=O)NCCO)cc1O  > 512 µg/mL
8      CCCCCc1cc(OC)cc(OCCCCCCCC(=O)NCCO)c1  > 512 µg/mL
9  CC(C)(C)n1cc(C(=O)O)c(=O)c2cc(F)c(Sc3ccccc3)cc21    256 µg/mL
